Experiment: DPPH radical scavenging assay
Type: biochemical
Settings: Conc. 2.5 μg/mL
property label: DPPH Scavenging % (%)
Value expressed in %; do not type the unit.

get_value(item= CC(=NNc1nc(N2CCOCC2)nc(N2CCOCC2)n1)c1ccccc1N [DMAT] , readout=DPPH Scavenging %) returns 20.79

get_value(item= CC(=NNc1nc(N2CCOCC2)nc(N2CCOCC2)n1)c1ccccc1O [DMOHT] , readout=DPPH Scavenging %) returns 5.73

get_value(item= CC(=NNc1nc(N2CCOCC2)nc(N2CCOCC2)n1)c1ccccc1[O-].O=[N+]([O-])[O-].[Cu+2] [Complex 3, [Cu(DMOT)(NO3)]] , readout=DPPH Scavenging %) returns 11.46

get_value(item= O=C1O[C@H]([C@@H](O)CO)C(O)=C1O [Ascorbic Acid, ascorbic acid, reference compound] , readout=DPPH Scavenging %) returns 34.57

get_value(item= CC(=NNc1nc(N2CCOCC2)nc(N2CCOCC2)n1)c1ccccc1[O-].CC(=O)[O-].[Cu+2] [Complex 2, [Cu(DMOT)(CH3COO)]] , readout=DPPH Scavenging %) returns 9.39

Data provenance: paper PMC9106035
